test system: Vero; assay: Minimum inhibitory concentration (MIC) required to reduce virus-induced cytopathogenicity by 50% against Parainfluenza virus-3 in African green monkey kidney (Vero B)cells; assay type: functional, Chlorocebus sabaeus; details: Chlorocebus sabaeus; read-out: MIC
In this section, each of the compounds is paired with its reported MIC.

Examples from the recorded data:
compound=Nc1ccn([C@H]2O[C@H](CO)[C@H](O)[C@@H]2O)c(=O)n1 measurement_target=Vero value_measured="> 400 µg/mL"
compound=Nc1nc2c(ncn2[C@@H]2O[C@H](CO)[C@H](O)[C@@H]2O)c(=O)[nH]1 measurement_target=Vero value_measured="> 400 µg/mL"
compound=O=c1ccn([C@@H]2O[C@H](CO)[C@H](O)[C@@H]2O)c(=O)[nH]1 measurement_target=Vero value_measured="> 400 µg/mL"
compound="Nc1ncnc2c1ccn2[C@@H]1O[C@H](CO)[C@@H](O)[C@H]1O [TUBERCIDIN]" measurement_target=Vero value_measured="> 0.1 µg/mL"

Shift focus to the following entry.
I would be grateful if you could share the reported MIC for "Nc1nc2c(ncn2[C@H]2O[C@H](CO)[C@H](O)[C@@H]2O)c(=O)[nH]1" .
> 400 µg/mL

Reference source for all entries: ChEMBL document CHEMBL1123770
